# Target under test: alanyl aminopeptidases (APN) (Homo sapiens, UniProt P15144)
# Sequence (P15144 whole entry, species assumed): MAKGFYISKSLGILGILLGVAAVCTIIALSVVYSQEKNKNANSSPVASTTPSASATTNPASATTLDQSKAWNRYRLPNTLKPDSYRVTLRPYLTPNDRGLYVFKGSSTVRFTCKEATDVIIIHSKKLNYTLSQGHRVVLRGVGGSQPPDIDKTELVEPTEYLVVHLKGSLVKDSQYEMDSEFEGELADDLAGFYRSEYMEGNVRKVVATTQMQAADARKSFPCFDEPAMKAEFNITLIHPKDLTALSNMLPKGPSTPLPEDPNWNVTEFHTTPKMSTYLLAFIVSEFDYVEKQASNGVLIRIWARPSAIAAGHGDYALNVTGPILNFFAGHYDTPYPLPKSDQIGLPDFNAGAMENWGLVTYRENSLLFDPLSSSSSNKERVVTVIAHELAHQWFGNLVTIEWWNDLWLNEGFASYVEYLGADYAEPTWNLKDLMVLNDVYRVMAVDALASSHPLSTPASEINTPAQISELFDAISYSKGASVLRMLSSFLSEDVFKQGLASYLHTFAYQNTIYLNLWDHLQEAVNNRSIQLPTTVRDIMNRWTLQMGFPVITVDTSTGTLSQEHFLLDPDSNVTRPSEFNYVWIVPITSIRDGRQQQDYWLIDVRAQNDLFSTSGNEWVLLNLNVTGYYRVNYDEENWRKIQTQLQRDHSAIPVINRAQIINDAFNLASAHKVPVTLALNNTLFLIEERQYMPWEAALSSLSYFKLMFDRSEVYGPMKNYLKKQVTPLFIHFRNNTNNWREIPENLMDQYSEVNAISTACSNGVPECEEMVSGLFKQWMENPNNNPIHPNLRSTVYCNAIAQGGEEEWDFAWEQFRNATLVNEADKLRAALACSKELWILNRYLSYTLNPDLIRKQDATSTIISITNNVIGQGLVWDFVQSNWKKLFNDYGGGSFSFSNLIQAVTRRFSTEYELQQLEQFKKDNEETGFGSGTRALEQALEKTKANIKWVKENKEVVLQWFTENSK
# Method summary: Inhibition of alanyl aminopeptidase enzymatic activity, fluorogenic substrate (Ala)2-rhodamine 110
# Format: biochemical
# Experimental conditions: Table 3, unstarred values; read-out: IC50APN
pIC50: −log10 of the molar value.
Property label: pIC50

COc1ccc(Cl)cc1C(=O)N/C(=C/c1ccco1)C(=O)N1CC2CC(C1)c1cccc(=O)n1C2 (stereo not shown)    5.09
CCCOC(=O)c1cc(-c2ccc(/C=C3/C(=O)N(CC(C)O)C(=O)C(C#N)=C3C)o2)ccc1Cl (stereo not shown)    4.49
CC1=C(C#N)C(=O)N=C(O)/C1=C\c1ccc(-c2ccc(Cl)cc2Cl)o1    4.52
COC(=O)c1cc(-c2ccc(/C=C3\C(=O)N(CCCO)C(=O)C(C#N)=C3C)o2)ccc1Cl    4.82
